Study target: T1, human MSLN-R3-his protein (human, UniProt Q13421 487-598)
T1 construct: Region 3 of human MSLN, His-tagged; also called human MSLN-R3 protein; hMSLN-R3-his; not shown: His tag
T1 sequence (Q13421 495-606): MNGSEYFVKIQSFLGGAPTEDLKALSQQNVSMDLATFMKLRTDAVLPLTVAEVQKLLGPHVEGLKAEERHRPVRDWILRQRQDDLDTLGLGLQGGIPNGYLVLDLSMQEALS
Assay details: ELISA, coated MSLN-R3
Reported property: OD450 at none (no antibody)

Binder	Reported property	Measurement
S009-F1.56.1 (antibody, human IgG1, kappa, V domains shown, Human-murine chimeric antibody, human IgG1/kappa constant regions) VH: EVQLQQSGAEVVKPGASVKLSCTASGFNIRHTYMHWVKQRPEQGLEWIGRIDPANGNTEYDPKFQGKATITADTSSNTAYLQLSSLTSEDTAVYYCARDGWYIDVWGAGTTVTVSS VL: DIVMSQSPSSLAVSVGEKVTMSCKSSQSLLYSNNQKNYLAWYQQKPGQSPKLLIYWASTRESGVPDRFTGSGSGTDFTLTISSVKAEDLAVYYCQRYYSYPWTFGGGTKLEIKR	OD450 at none (no antibody)	0.06 OD450
